Assay: Quantitative High-Throughput drug screen in 47 multiple myeloma cell lines against the NCATS MIPE library collection: KMS26_JCRB cell viability assay (AID 1918975); also: potency is read from the fitted curve at half-maximal effect; nearly all actives have a fitted effect of over 45% in size
Conditions: KMS26 myeloma cells viability, CellTiter-Glo ATP, 48 h; series mostly up to 45.8 µM
Results filed as inconclusive are left out. The source made the active and inactive calls. Calls follow the shape of the dose curve; as a rule, active = well fitted cell-killing curve with a large enough effect; inconclusive = small, poorly fitted or top-dose-only effect, or effect the other way; inactive = no such curve, though single readings can be large or run the other way.

Compound	Potency
CC(O)(CS(=O)(=O)c1ccc(F)cc1)C(=O)Nc1ccc(C#N)c(C(F)(F)F)c1 (centres undefined)	1180 nM (active)
COC[C@H]1OC(=O)c2coc3c2[C@@]1(C)C1=C(C3=O)C2CCC(=O)[C@@]2(C)C[C@H]1OC(C)=O (some centres undefined)	1180 nM (active)
C[C@@H]1[C@@H](CC(C[C@H]2O[C@@H]3O[C@]4(C)CC[C@@H]5[C@H](C)CC[C@@H]([C@H]2C)[C@@]35OO4)C[S+](=O)([O-])c2ccc(COC(=O)N(C)C)cc2)O[C@@H]2O[C@]3(C)CC[C@H]4[C@H](C)CC[C@@H]1[C@@]24OO3 (some centres undefined)	296 nM (active)
Cc1sc2c(c1C)C(c1ccc(Cl)cc1)=N[C@@H](CC(=O)OC(C)(C)C)c1nnc(C)n1-2	526 nM (active)
